Just for reference, the supplement of paper PMC5998384 is where these values come from.

# System: HeLa Kyoto;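 note: synchronized HeLa Kyoto cells (double thymidine block for G1/S, nocodazole release for mitosis), protein amounts in NP-40 versus SDS lysates quantified by mass spectrometry, three biological replicates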
# assay-notes: solubility change mitosis vs G1/S (difference of NP-40 vs SDS log2 ratios) (log2 ratio difference); higher = more soluble in mitosis
Entries and their solubility change mitosis (log2)

| seq-string | solubility change mitosis (log2) |
| --- | --- |
| MSDFDSNPFADPDLNNPFKDPSVTQVTRNVPPGLDEYNPFSDSRTPPPGGVKMPNVPNTQPAIMKPTEEHPAYTQIAKEHALAQAELLKRQEELERKAAELDRREREMQNLSQHGRKNNWPPLPSNFPVGPCFYQDFSVDIPVEFQKTVKLMYYLWMFHAVTLFLNIFGCLAWFCVDSARAVDFGLSILWFLLFTPCSFVCWYRPLYGAFRSDSSFRFFVFFFVYICQFAVHVLQAAGFHNWGNCGWISSLTGLNQNIPVGIMMIIIAALFTASAVISLVMFKKVHGLYRTTGASFEKAQQEFATGVMSNKTVQTAAANAASTAASSAAQNAFKGNQI [SCAMP1] | -0.114 |
| MATVGAPRHFCRCACFCTDNLYVARYGLHVRFRGEQQLRRDYGPILRSRGCVSAKDFQQLLAELEQEVERRQRLGQESAARKALIASSYHPARPEVYDSLQDAALAPEFLAVTEYSVSPDADLKGLLQRLETVSEEKRIYRVPVFTAPFCQALLEELEHFEQSDMPKGRPNTMNNYGVLLHELGLDEPLMTPLRERFLQPLMALLYPDCGGGRLDSHRAFVVKYAPGQDLELGCHYDNAELTLNVALGKVFTGGALYFGGLFQAPTALTEPLEVEHVVGQGVLHRGGQLHGARPLGTGERWNLVVWLRASAVRNSLCPMCCREPDLVDDEGFGDGFTREEPATVDVCALT [OGFOD2] | 0.112 |
